Tested on: THRa homodimer (NR concentration 90 nM)
Test: PBM binding z-score (relative to random genomic background probes); higher = stronger binding; sequences stand for … in GC…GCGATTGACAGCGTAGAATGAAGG
Rule: PBM binding z-score under 0.1 gives NOT MET, otherwise MET.

Q. Would you say ATACCAAGTTGATCGTGAGGTCGTTGATACTAAC shows PBM binding z-score at minimum 0.1?
A. MET

Q. Further, for TCATGTAGGTAAAGGTGAAAGTCGAACGATATGA ?
A. NOT MET

Q. Further, for TCTAGTTGGTCAAAAGTCACACACTCGAAATGCG ?
A. MET

Q. Further, for CAGCCTAGGTCAGGGCCAGTCTAGGAGGAACGTT ?
A. MET

Q. Further, for CGAACTAGGTCATGGACAGGACAGTGAATAGTAA ?
A. MET

Q. Further, for TCGAGTAGGTTAGGGGCATTCAAAATGGCGTCGA ?
A. MET

Q. Further, for TCTATTAGTTGATTAGGGCATCCGAAACAGCGGA ?
A. MET

Q. Further, for CGAACGAGGGCATTAGTTGATAGCAAATGCCGAT ?
A. NOT MET

Q. Further, for CAAACTAGGTCTAGGTCAAAGTCGGTTTGTGCCA ?
A. MET

Q. Further, for CCTACTGAGCCAAAAAGGTCATTGATGCCGATAA ?
A. MET

Q. Further, for AATACAGGGTCATCGTCGGCCAGAGTACGCACAG ?
A. MET

Q. Further, for CCTCGCAGGCCAATCTGGGTCACTCAAGGCTTGA ?
A. MET

Q. Further, for CATACTAGGTCACAGAGGTCAAAGTCCGTGCGTA ?
A. MET

Q. Further, for CAAACTAGGTCACCGGAAGGTCAATGTCCGCATG ?
A. MET

Q. Further, for TAGCCTAGGTCATGGGCCAGTAGACCACGCGAAC ?
A. MET

Q. Further, for AGTACAGGGTCATCGTAGGCCAGAGTACGCACAG ?
A. MET

Q. Further, for CGTCCAAGGTCAATGCTAGGTCGGTGAAAGCATT ?
A. MET

Q. Further, for ACTAGCAGGCCAAGTTTGGGTCACTCACACAAAG ?
A. MET

Q. Further, for AGAATGAGGTTACCAAAGATCAGCGAAACGCTTG ?
A. MET

Q. Further, for GGATCGAGGGCAAGTTGATAGCAGAGTTTGATGG ?
A. MET

Q. Further, for AGAACGAGGGCAATAAGTTGATAGCACGGGTGGC ?
A. NOT MET

Q. Further, for GGAACGAGGGCAAAGTTGATCGCATCTGTCGACG ?
A. NOT MET

Q. Further, for TCATATAGGTAAAAGGTGAAATTCGGTGTGGTAA ?
A. MET

Q. Further, for CCAGCCAGGTGAAAGGTAACTCAGTCTGGTACGC ?
A. MET

Q. Further, for ATCTCTAGGTAAAGATAGTTCACTGAATGCAAAT ?
A. MET

Q. Further, for AGAATGAGGTTATACGTAGATCAGGGGAGAAAGT ?
A. MET

Q. Further, for GCCACTGGGGCATCAGCAGGTTACCATAACTTAA ?
A. NOT MET

Q. Further, for TAGTCTAGGTCATGGGCCAGTATACCACGCGAAC ?
A. MET

Q. Further, for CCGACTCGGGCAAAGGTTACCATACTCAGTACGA ?
A. NOT MET

Q. Further, for TCGAGTAGATTACCAATGGGGCATTCAGCTTTCT ?
A. NOT MET

Q. Further, for AGTACGAGGGCACGCTGAGTTGATAGCAGAGTAG ?
A. MET

Q. Further, for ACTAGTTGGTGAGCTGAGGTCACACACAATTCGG ?
A. MET

Q. Further, for GCACCAAGGTGAATAGGTCGTTGATGAGTAGGCG ?
A. MET

Q. Further, for TCTCGGAGGACACGATGGTCAGAGCTTTCCAGAG ?
A. MET

Q. Further, for TCGAGTTGGTTAGTCGGGGCATTCAGCCAACATA ?
A. NOT MET

Q. Further, for GCTAGTTGGTCAGTAAAAAGTCACACACCGGTCG ?
A. NOT MET

Q. Further, for ATATGTAGGTTACATCCCGGTCATTCAGGCTATG ?
A. MET

Q. Further, for TCTGCTAGGTCAGTTGATCAGCTAACGAGCTGCC ?
A. MET

Q. Further, for GCGACTGGGGCATCAGCAGGTTACCAAAACTTAA ?
A. NOT MET

Q. Further, for CGTCAAAGTTCAACTAAGGTAACGAAAAGCACGC ?
A. MET

Q. Further, for TCTCGGTGGACACGAAAGGTCAGAGCTCGACATC ?
A. MET

Q. Further, for ACTAGCAGGCCAAGGGTCAATCAAGATTAGTCCG ?
A. NOT MET

Q. Further, for GCGACTGGGGCAACAGCAGGTTACCATAACTTAA ?
A. NOT MET

Q. Further, for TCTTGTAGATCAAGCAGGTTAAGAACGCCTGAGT ?
A. NOT MET

Q. Further, for TTACCAAGGTGAGCTGAGGTCGTTGCTCCAACTC ?
A. MET

Q. Further, for GCTGCTAGGTCAACAGATGGTCAGCTAAAGCTCG ?
A. MET

Q. Further, for TCCGACAGGTGAAGGTAACTCAGGTACGCAGTCG ?
A. NOT MET

Q. Further, for CAAACTAGGCCACGAAAGGTCAAAGTCGAATGAC ?
A. MET

Q. Further, for CCGACTTGGGCAGAAAGGTTACCATACCATCCGG ?
A. NOT MET

Q. Further, for AGAATGAGGTTATTAAGATCAGGGGATTGCGGTC ?
A. MET

Q. Further, for TAGCCTAGATCATTCAGGGGCCAGTATAGAAAGC ?
A. NOT MET
